Recorded measurements of Kd, one per entry
- target: SARS-CoV-2 Spike protein receptor-binding domain (RBD) (SARS-CoV-2, UniProt P0DTC2 319-527)
outcome measure: Kd (nM)

>>> quantitative_readout("AB-8 full-length IgG1 (antibody, V domains shown) VH: EVQLEESGTVLARPGASVKMSCKASGYTFTTYWMHWIKQRPGQGLEWIGAIYPGNSDTIYNQKFKDKAKLTAVKSTSSAYMELSSLTNEDSAVYFCTREGIPQLLRTLDYWGQGTSVTVSS VL: DILMTQSPSSLSASLGERVSLTCRASQEISGYLSWLQEKPDGTIKRLIYAASTLDSGVPKRFSGSRSGSDYSLTISSLESEDFADYYCLQYLSYPWTFGGGTKLEIK")
104
>>> quantitative_readout("AB-2 full-length IgG1 (antibody, V domains shown) VH: EVQLEESGTVLARPGASVKMSCKASGYTFTTYWMHWIKQRPGQGLEWIGAIYPGNGDTNYNQKFKDKAKLTAVKSTSSAYMELSSLTNEDSAVYFCTREGIPQLLRTLDYWGQGTSVTVSS VL: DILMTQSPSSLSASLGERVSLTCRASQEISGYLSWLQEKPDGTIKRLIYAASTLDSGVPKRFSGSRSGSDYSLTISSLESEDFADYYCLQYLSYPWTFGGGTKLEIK")
127
>>> quantitative_readout("AB-1 full-length IgG1 (antibody, V domains shown) VH: EVQLEESGTVLARPGASVKMSCKASGYTFTTYWMHWIKQRPGQGLEWIGAIYPGNSDTQYNQKFKDKAKLTAVKSTSSAYMELSSLTNEDSAVYFCTREGIPQLLRTLDYWGQGTSVTVSS VL: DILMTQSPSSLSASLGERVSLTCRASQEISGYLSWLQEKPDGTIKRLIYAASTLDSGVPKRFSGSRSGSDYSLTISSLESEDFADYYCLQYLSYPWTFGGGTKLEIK")
34.2
